- Test system: L. monocytogenes EGD
- Format: cell-based, Listeria monocytogenes
- experimentalSetup: 24 h
Positions of bridges follow the written chain, without caps; N, C: chain ends. No end group written: not given here.
What Minimum Inhibitory Concentration was measured for each of the following?

Just so you know, measured Minimum Inhibitory Concentration for KTYYGTNGVHCTKNSLWGKVRLKNVKYDQNTTYIGRLQDILLGWATGAFGKTFH [OR-7(VI)] came out at >64 µM

Entry KTYYGNGVHSTKKSLWGKVRLKNVIPGTLSRKQSLPIKQDLKILLGWATGAFGKTFH [AcdA(dT,C11S,C31S)] , Minimum Inhibitory Concentration reported as >32 µM

KTYVGNTGYHCTKKSLWGKVRLKNVIPGTLCRKQSLPIKQDLKILLGWATGAFGKTFH (disulfide 11-31) [AcdA(x4)] yielded Minimum Inhibitory Concentration of >32 µM

The sequence TYYGTNGVSCNKKGCSVDWGKAISIIGNNSAANLATGGAAGWKS (disulfide 10-15) [AviA(T)] showed Minimum Inhibitory Concentration equal to >32 µM

Record KTYYGNGVHCTKKSLWGKVRLKNVIPGTLSRKQSLPIKQDLKILLGWATGAFGKTFH [AcdA(dT,C31S)] , field Minimum Inhibitory Concentration: >32 µM
